All values here come from patent US20040044037A1.

molecular target: human 5-HT1a receptors (Homo sapiens, UniProt P08908); construct: expressed in transfected cells; host or cells: CHO K1 cells; assay: Competition radioligand binding, h5-HT1a; conditions: [3H]5-CT; membranes of CHO K1 cells; read-out: Ki 5-HT1A
Sequence (P08908 whole entry): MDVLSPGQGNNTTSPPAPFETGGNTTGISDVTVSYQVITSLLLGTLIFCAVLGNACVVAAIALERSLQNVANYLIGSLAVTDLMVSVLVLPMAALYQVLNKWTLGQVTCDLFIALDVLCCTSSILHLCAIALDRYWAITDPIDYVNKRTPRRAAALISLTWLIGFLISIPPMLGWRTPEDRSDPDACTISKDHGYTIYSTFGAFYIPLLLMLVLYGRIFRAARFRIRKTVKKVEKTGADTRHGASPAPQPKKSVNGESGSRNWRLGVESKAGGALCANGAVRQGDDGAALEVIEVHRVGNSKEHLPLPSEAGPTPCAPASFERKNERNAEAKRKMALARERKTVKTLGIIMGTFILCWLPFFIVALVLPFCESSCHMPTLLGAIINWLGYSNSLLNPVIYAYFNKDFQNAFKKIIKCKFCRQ
Below: a set of entries, each annotated with reported pKi.
In plain terms, pKi is the concentration in mol/L turned into minus its base-10 logarithm.

Below, each entry is followed by its recorded pKi result.
compound: N=C(NCc1cccc2ccccc12)NC(=O)NC1CCc2ccccc21 (centres unmarked)
pKi: 6.20

compound: N=C(NCc1cccc2ccccc12)NC(=O)N1CCN(Cc2ccccc2)CC1
pKi: 5.77

[Q] I'd like to know its pKi. The compound in question is N=C(NCc1cccc2ccccc12)NC(=O)NCC1(O)CCCCC1
[A] 7.33

[Q] Another compound: COc1ccccc1N1CCN(C(=O)NC(=N)NCc2cccc3ccccc23)CC1
[A] 6.28

[Q] Another compound: Cc1cccc(CN2CCC(CNC(=O)NC(=N)NCc3cccc4ccccc34)CC2)c1
[A] 6.38

---

biological target: human 5-HT6 (h5-HT6) receptors (Homo sapiens); construct: purchased Receptor Biology, Inc. (Beltsville, Md.); host or cells: HEK-293 cells; assay: Competition radioligand binding, h5-HT6; conditions: [3H]LSD; membranes of HEK-293 cells; read-out: Ki 5-HT6
Sequence (P50406 whole entry): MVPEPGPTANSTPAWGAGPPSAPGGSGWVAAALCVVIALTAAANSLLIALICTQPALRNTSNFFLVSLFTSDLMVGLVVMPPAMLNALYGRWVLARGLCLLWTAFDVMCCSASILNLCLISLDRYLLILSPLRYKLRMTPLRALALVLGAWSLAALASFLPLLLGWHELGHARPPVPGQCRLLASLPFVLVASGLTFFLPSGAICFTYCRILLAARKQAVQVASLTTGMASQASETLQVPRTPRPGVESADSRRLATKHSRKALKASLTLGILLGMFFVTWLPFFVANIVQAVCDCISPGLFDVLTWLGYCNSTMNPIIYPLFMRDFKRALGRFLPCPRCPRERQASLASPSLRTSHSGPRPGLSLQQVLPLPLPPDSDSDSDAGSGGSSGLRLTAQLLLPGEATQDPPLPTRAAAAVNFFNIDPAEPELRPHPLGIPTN
API: label(entry) gives Satisfied if the entry's Ki is strictly smaller than 1000 nM; on equality or larger values it gives Not satisfied.

molecule: N=C(NCc1cccc2ccccc12)NC(=O)NCCc1ccc(N)cc1
assigned.category: Not satisfied
--
molecule: N=C(NCc1cccc2ccccc12)NC(=O)NCC1CCNCC1
assigned.category: Not satisfied
--
molecule: CC(=O)Nc1ccc(NC(=O)NC(=N)NCc2cccc3ccccc23)cc1
assigned.category: Not satisfied
--
molecule: N=C(NCc1cccc2ccccc12)NC(=O)N[C@H]1c2ccccc2C[C@H]1O
assigned.category: Not satisfied
--
molecule: COc1ccc(CN2CCC(CNC(=O)NC(=N)NCc3cccc4ccccc34)CC2)cc1
assigned.category: Not satisfied

[Q] Consider N=C(NCc1cccc2ccccc12)NC(=O)NCC1(O)CCCCC1 . Does its Ki lie strictly below 1000 nM?
[A] Satisfied

[Q] Another molecule: N=C(NCc1cccc2ccccc12)NC(=O)NC1CC1
[A] Not satisfied

[Q] Another molecule: CC(=O)Nc1ccc(CN2CCC(CNC(=O)NC(=N)NCc3cccc4ccccc34)CC2)cc1
[A] Not satisfied

[Q] Another molecule: COc1cccc(CCNC(=O)NC(=N)NCc2cccc3ccccc23)c1OC
[A] Not satisfied

[Q] Another molecule: Cc1ccccc1CN1CCC(CNC(=O)NC(=N)NCc2cccc3ccccc23)CC1
[A] Not satisfied

[Q] Another molecule: N=C(NCc1cccc2ccccc12)NC(=O)N1CCN(C/C=C/c2ccccc2)CC1
[A] Not satisfied

[Q] Another molecule: N=C(NCc1cccc2ccccc12)NC(=O)NCc1ccc(F)cc1
[A] Not satisfied

[Q] Another molecule: COc1cccc(CN2CCC(CNC(=O)NC(=N)NCc3cccc4ccccc34)CC2)c1
[A] Not satisfied

[Q] Another molecule: CC(=O)NCCNC(=O)NC(=N)NCc1cccc2ccccc12
[A] Not satisfied

[Q] Another molecule: Cc1ccc(CN2CCC(CNC(=O)NC(=N)NCc3cccc4ccccc34)CC2)cc1
[A] Not satisfied
